# Study target: human Oxytocin (hOT) receptor (Homo sapiens, UniProt P30559)
# Construct: expressed in transfected cells; host or cells: HEK293EBNA (membranes)
# Sequence (P30559 whole entry): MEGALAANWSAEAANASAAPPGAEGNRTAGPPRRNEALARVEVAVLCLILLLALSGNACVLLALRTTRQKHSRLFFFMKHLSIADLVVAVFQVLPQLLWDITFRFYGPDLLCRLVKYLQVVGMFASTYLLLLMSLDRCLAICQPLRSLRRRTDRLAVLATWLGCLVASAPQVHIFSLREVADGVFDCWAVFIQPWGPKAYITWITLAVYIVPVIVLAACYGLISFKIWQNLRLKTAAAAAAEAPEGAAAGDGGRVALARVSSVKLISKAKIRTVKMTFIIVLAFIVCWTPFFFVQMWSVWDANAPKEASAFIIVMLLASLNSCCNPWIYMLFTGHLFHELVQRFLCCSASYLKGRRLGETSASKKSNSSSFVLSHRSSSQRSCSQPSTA
# Experiment summary: In vitro competition binding assay on hOT receptor with scintillation proximity assay
# Assay setup: inhibition of [125I]-OVTA binding, membranes from HEK293EBNA cells expressing hOT receptor; read-out: Binding Affinity hOT-R (Ki [nM])
Property: Ki (nM)
Give just the number in nM; leave the unit off.

So what's the measured Ki for this one? COC[C@@H]1CC(=NOC)CN1C(=O)c1ccc(-c2ccccc2)cc1 [Compound 8]
55

Another molecule to check: CON=C1C[C@@H](COCC(=O)NCCN2CCCC2)N(C(=O)c2ccc(-c3ccccc3)cc2)C1 [Compound 7]
140

Also CON=C1C[C@@H](CCO)N(C(=O)c2ccc(-c3ccccc3)cc2)C1 [Compound 16] , if possible.
120

Field entry: CON=C1C[C@@H](CO)N(C(=O)c2ccc(-c3ccccc3)cc2)C1 [Compound 2]
139

Next entry: CO/N=C1/C[C@@H](CO)N(C(=O)c2ccc(-c3ccccc3)cc2)C1 [Compound 4]
94.9

What about this molecule? CON=C1C[C@@H](CN2C(=O)c3ccccc3C2=O)N(C(=O)c2ccc(-c3ccccc3)cc2)C1 [Compound 12]
5.1

Data origin, for the record: patent US7115754B2
